# method-description: Biodistribution experiments in normal mice after i.v. injection
# Assay type: in vivo
# measurement-context: male, ddY, mouse, in vivo, iv, total radioactivity, Biodistribution of radioactivity, Pancreas
Where a SMILES comes first, the peptide text is derived from it. [ ]: non-standard residue; d: D form. The star is where a group is joined. DOTA = O=C(O)CN1CCN(CC(=O)O)CCN(CC(=O)*)CCN(CC(=O)O)CC1
property-label: tissue uptake dose at 10 min

Task: tissue uptake dose at 10 min lookup needed for O=C(O)C[C@@H](NC(=O)[C@@H](CC(=O)O)NC(=O)CN1CCN(CC(=O)O)CCN(CC(=O)O)CCN(CC(=O)O)CC1)C(=O)O [^67Ga-DOTA-(D-Asp)2, metal not drawn] ({DOTA}-[dD]-[dD]-OH) , thanks.
Output: 0.57 %ID

Task: Now consider O=C(O)CC[C@@H](NC(=O)[C@@H](CCC(=O)O)NC(=O)[C@@H](CCC(=O)O)NC(=O)[C@@H](CCC(=O)O)NC(=O)[C@@H](CCC(=O)O)NC(=O)[C@@H](CCC(=O)O)NC(=O)[C@@H](CCC(=O)O)NC(=O)[C@@H](CCC(=O)O)NC(=O)[C@@H](CCC(=O)O)NC(=O)[C@@H](CCC(=O)O)NC(=O)[C@@H](CCC(=O)O)NC(=O)[C@@H](CCC(=O)O)NC(=O)[C@@H](CCC(=O)O)NC(=O)[C@@H](CCC(=O)O)NC(=O)CN1CCN(CC(=O)O)CCN(CC(=O)O)CCN(CC(=O)O)CC1)C(=O)O [^67Ga-DOTA-(D-Glu)14, metal not drawn] and answer again.
Output: 0.68 %ID

Task: Another molecule: O=C(O)C[C@@H](NC(=O)[C@@H](CC(=O)O)NC(=O)[C@@H](CC(=O)O)NC(=O)[C@@H](CC(=O)O)NC(=O)[C@@H](CC(=O)O)NC(=O)CN1CCN(CC(=O)O)CCN(CC(=O)O)CCN(CC(=O)O)CC1)C(=O)O [^67Ga-DOTA-(D-Asp)5, metal not drawn] ({DOTA}-[dD][dD][dD][dD][dD]-OH)
Output: 0.72 %ID

###

# method-description: Biodistribution experiments in normal mice after i.v. injection
# Format: in vivo
# measurement-context: male, ddY, mouse, in vivo, iv, total radioactivity, mice, i.v., 180 min after injection, mean (SD); read-out: Biodistribution of radioactivity, Brain
# Method: Experiments with animals were conducted in strict accordance with the Guidelines for the Care and Use of Laboratory Animals of Kanazawa University. […] Complete left femurs were isolated as representative bone samples, radioactivity was determined using gamma counters (AccuFLEX γ ARC-8001 in the case of ^18F, Hitachi, Ltd.), and background counts and physical decay were corrected during counting.
Where a SMILES comes first, the peptide text is derived from it. [ ]: non-standard residue; d: D form. The star is where a group is joined. DOTA = O=C(O)CN1CCN(CC(=O)O)CCN(CC(=O)*)CCN(CC(=O)O)CC1
property-label: tissue uptake dose at 3 h

Task: Quick one: tissue uptake dose at 3 h for O=C(O)C[C@@H](NC(=O)[C@@H](CC(=O)O)NC(=O)[C@@H](CC(=O)O)NC(=O)[C@@H](CC(=O)O)NC(=O)[C@@H](CC(=O)O)NC(=O)[C@@H](CC(=O)O)NC(=O)[C@@H](CC(=O)O)NC(=O)[C@@H](CC(=O)O)NC(=O)[C@@H](CC(=O)O)NC(=O)[C@@H](CC(=O)O)NC(=O)[C@@H](CC(=O)O)NC(=O)CN1CCN(CC(=O)O)CCN(CC(=O)O)CCN(CC(=O)O)CC1)C(=O)O [^67Ga-DOTA-(D-Asp)11, metal not drawn] ({DOTA}-[dD][dD][dD][dD][dD][dD][dD][dD][dD][dD][dD]-OH) ?
Output: 0.02 %ID
